- SYSTEM_UNDER_TEST: T1, human EphA2 (human, UniProt P29317 24-534, limits assumed)
- T1 construct: Target of the BIAcore analysis as named in the text
- MEASUREMENT_DESCRIPTION: BIAcore; format not stated
Define the label as Criterion met when kon is strictly less than 50000 M⁻¹ s⁻¹ and as Criterion not met in all remaining cases.

Consider the following illustrative entries.
- Mouse version of EP101 (mouse IgG) (antibody, V domains shown, Mouse IgG; also called anti-human EphA2 monoclonal antibody EP101; parental murine antibody) VH: EVKLVESGGGLVQPGGSLSLSCAASGFTFTDYSMNWVRQPPGKALEWLGFIRNKANDYTTEYSASVKGRFTISRDNSQSILYLQMNALRAEDSATYYCVRYPRYHAMDSWGQGTSVTVSS VL: DIVLTQSPATLSVTPGDSVNLSCRASQSISNNLHWYQQKSHESPRLLIKYVFQSISGIPSRFSGSGSGTDFTLSINSVETEDFGMYFCQQSNSWPLTFGAGTKLELK: Criterion not met
- Humanized version I of EP101 (hu IgG1) (antibody, V domains shown) VH: QMQLVQSGPEVKKPGTSVKVSCKASGFTFTDYSMNWVRQARGQRLEWLGFIRNKANDYTTEYSASVKGRVTITRDMSTSTAYMELSSLRSEDTAVYYCARYPRYHAMDSWGQGTSVTVSS VL: DIVMTQSPSSLSASVGDRVTIICRASQSISNNLHWYQQKPGKAPKLLIKYVFQSISGVPSRFSGSGSGTDFTFTISSLQPEDFATYYCQQSNSWPLTFGGGTKVEIK: Criterion not met
- Chimaeric version of EP101 (hu IgG1) (antibody, V domains shown, Chimeric Fab cloned and expressed as a full length human IgG1; also called chimeric version of anti-EphA2 antibody) VH: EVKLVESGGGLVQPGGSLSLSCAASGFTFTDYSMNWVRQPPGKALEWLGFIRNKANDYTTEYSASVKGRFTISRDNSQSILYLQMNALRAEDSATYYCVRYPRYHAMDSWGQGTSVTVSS VL: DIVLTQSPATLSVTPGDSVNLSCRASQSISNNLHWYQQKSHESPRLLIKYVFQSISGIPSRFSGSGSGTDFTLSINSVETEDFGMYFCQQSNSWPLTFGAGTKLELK: Criterion not met
- Humanized version II of EP101 (hu IgG1) (antibody, V domains shown) VH: QMQLVQSGPEVKKPGTSVKVSCKASGFTFTDYSMNWVRQARGQRLEWIGFIRNKANDYTTEYSASVKGRVTITRDMSTSTAYMELSSLRSEDTAVYYCARYPRYHAMDSWGQGTSVTVSS VL: DIQMTQSPSSLSASVGDRVTITCRASQSISNNLHWYQQKPGKAPKLLIKYVFQSISGVPSRFSGSGSGTDFTFTISSLQPEDFATYYCQQSNSWPLTFGGGTKVEIK: Criterion met

Here is another binder to look at.
State whether 50000 M⁻¹ s⁻¹ exceeds kon recorded for Humanized version III of EP101 (hu IgG1) (antibody, V domains shown) VH: QMQLVQSGPEVKKPGTSVKVSCKASGFTFTDYSMNWVRQARGQRLEWIGFIRNKANDYTTEYSASVKGRVTITRDMSTSTAYMELSSLRSEDTAVYYCARYPRYHAMDSWGQGTSVTVSS VL: DIVMTQSPSSLSASVGDRVTIICRASQSISNNLHWYQQKPGKAPKLLIKYVFQSISGVPSRFSGSGSGTDFTFTISSLQPEDFATYYCQQSNSWPLTFGGGTKVEIK .
Criterion not met
